Tested on: CN0375-F725-PDC KRAS spheroid viability;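 further: spheroids exposed to agents for 7 days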
Test: Anticancer human tumor CN0375-F725-PDC patient-derived colon carcinoma cell line growth inhibition [KRAS2]
Conditions: second compound 0.316 µM; first compound 0.0316 µM; hits give low values; spheroids with HUVEC and MSC
Excerpt: Multicellular complex tumor spheroid response to RAS pathway inhibitors in combination with a targeted agents in patient-derived cell lines with oncogenic KRAS variants from multiple cancer types A high-throughput screen of multi-cell type tumor spheroids was designed to identify active combinations of targeted small molecules and KRAS pathway inhibitors. […] Compounds. […] If the clinical Cmax for an agent had not been determined, the highest concentration tested was 10 microM. […]
QUANTITY: viability, T/C (%)

COMPOUND	VALUE REPORTED
Cn1nccc1Nc1nccc(-c2cc3c(s2)C(C)(C)N(CCN2CCOCC2)C3=O)n1 + CC1OCC2(CCN(c3cnc(Sc4ccnc(N)c4Cl)c(N)n3)CC2)C1N	88.8
Cn1nccc1Nc1nccc(-c2cc3c(s2)C(C)(C)N(CCN2CCOCC2)C3=O)n1 + CNCc1ccccc1-c1csc(C(C)Nc2nc(C)nc3cc(OC)c(OC)cc23)c1	86.5
CC1(C)CCC(CN2CCN(c3ccc(C(=O)NS(=O)(=O)c4ccc(NCC5CCOCC5)c([N+](=O)[O-])c4)c(Oc4cnc5[nH]ccc5c4)c3)CC2)=C(c2ccc(Cl)cc2)C1 + CC1OCC2(CCN(c3cnc(Sc4ccnc(N)c4Cl)c(N)n3)CC2)C1N	95.4
Cn1nccc1Nc1nccc(-c2cc3c(s2)C(C)(C)N(CCN2CCOCC2)C3=O)n1 + C=CC(=O)N1CCN(c2nc(=O)n(-c3c(C)ccnc3C(C)C)c3nc(-c4c(O)cccc4F)c(F)cc23)C(C)C1	120
CC1(C)CCC(CN2CCN(c3ccc(C(=O)NS(=O)(=O)c4ccc(NCC5CCOCC5)c([N+](=O)[O-])c4)c(Oc4cnc5[nH]ccc5c4)c3)CC2)=C(c2ccc(Cl)cc2)C1 + C=CC(=O)N1CCN(c2nc(=O)n(-c3c(C)ccnc3C(C)C)c3nc(-c4c(O)cccc4F)c(F)cc23)C(C)C1	110
COC(=O)c1ccc2c(C(=Nc3ccc(N(C)C(=O)CN4CCN(C)CC4)cc3)c3ccccc3)c(O)[nH]c2c1 + CC1OCC2(CCN(c3cnc(Sc4ccnc(N)c4Cl)c(N)n3)CC2)C1N	102
COc1cc2nccc(Oc3ccc(NC(=O)C4(C(=O)Nc5ccc(F)cc5)CC4)cc3)c2cc1OC + COc1cc2nc(C)nc(NC(C)c3cc(N)cc(C(F)(F)F)c3)c2cc1OC1CCOC1	100
CC(=O)Nc1cccc(-n2c(=O)n(C3CC3)c(=O)c3c(Nc4ccc(I)cc4F)n(C)c(=O)c(C)c32)c1 + COc1cc2nc(C)nc(NC(C)c3cc(N)cc(C(F)(F)F)c3)c2cc1OC1CCOC1	31.6
CC1OCC2(CCN(c3cnc(Sc4ccnc(N)c4Cl)c(N)n3)CC2)C1N (stereo not given) + CNCc1ccccc1-c1csc(C(C)Nc2nc(C)nc3cc(OC)c(OC)cc23)c1	94.2
Cn1nccc1Nc1nccc(-c2cc3c(s2)C(C)(C)N(CCN2CCOCC2)C3=O)n1 + C=CC(=O)N1CCN(c2nc(OCC3CCCN3C)nc3c2CCN(c2cccc4cccc(C)c24)C3)CC1CC#N	91.5
COc1cc2nccc(Oc3ccc(NC(=O)C4(C(=O)Nc5ccc(F)cc5)CC4)cc3)c2cc1OC + C=CC(=O)N1CCN(c2nc(OCC3CCCN3C)nc3c2CCN(c2cccc4cccc(C)c24)C3)CC1CC#N	96.6
CC(C)NCC(C(=O)N1CCN(c2ncnc3c2C(C)CC3O)CC1)c1ccc(Cl)cc1 (stereo not given) + CC1OCC2(CCN(c3cnc(Sc4ccnc(N)c4Cl)c(N)n3)CC2)C1N	93.6
Cn1ncnc1[C@H]1c2n[nH]c(=O)c3cc(F)cc(c23)N[C@@H]1c1ccc(F)cc1 + COc1cc2nc(C)nc(NC(C)c3cc(N)cc(C(F)(F)F)c3)c2cc1OC1CCOC1	96.4
COC(=O)c1ccc2c(C(=Nc3ccc(N(C)C(=O)CN4CCN(C)CC4)cc3)c3ccccc3)c(O)[nH]c2c1 + CNCc1ccccc1-c1csc(C(C)Nc2nc(C)nc3cc(OC)c(OC)cc23)c1	94.7
CN(C)C/C=C/C(=O)Nc1cc2c(Nc3ccc(F)c(Cl)c3)ncnc2cc1O[C@H]1CCOC1 + CC1OCC2(CCN(c3cnc(Sc4ccnc(N)c4Cl)c(N)n3)CC2)C1N	83.2
CC(=O)OC12COC1CC(O)C1(C)C(=O)C(O)C3=C(C)C(OC(=O)C(O)C(NC(=O)OC(C)(C)C)c4ccccc4)CC(O)(C(OC(=O)c4ccccc4)C21)C3(C)C (stereo not given) + CNCc1ccccc1-c1csc(C(C)Nc2nc(C)nc3cc(OC)c(OC)cc23)c1	89.4
CC1OCC2(CCN(c3cnc(Sc4ccnc(N)c4Cl)c(N)n3)CC2)C1N (stereo not given) + C=CC(=O)N1CCN(c2nc(OCC3CCCN3C)nc3c2CCN(c2cccc4cccc(C)c24)C3)CC1CC#N	102
O=C(c1cc(Cc2n[nH]c(=O)c3ccccc23)ccc1F)N1CCN(C(=O)C2CC2)CC1 + C=CC(=O)N1CCN(c2nc(OCC3CCCN3C)nc3c2CCN(c2cccc4cccc(C)c24)C3)CC1CC#N	101
CC1COCCN1c1cc(-c2ccnn2C)c2ccnc(-c3ccn[nH]3)c2n1 (stereo not given) + COc1cc2nc(C)nc(NC(C)c3cc(N)cc(C(F)(F)F)c3)c2cc1OC1CCOC1	91.4
COc1cc(Nc2ncc3c(n2)-c2ccc(Cl)cc2C(c2c(F)cccc2OC)=NC3)ccc1C(=O)O + COc1cc2nc(C)nc(NC(C)c3cc(N)cc(C(F)(F)F)c3)c2cc1OC1CCOC1	97
